# glycan array binding signal (z-score) per entry
- experimental.target: Gal4S(b1-4)GlcNAc
- protocol.details: glycan array binding signal (z-score within array); higher = stronger binding
- setup.conditions: glycan notation: IUPAC condensed, linker removed
Many of the other results were omitted from the sample, so the strongest signals are more common in it than they were.
Output: the number by itself.

Gal 2 (Canis lupus) (protein) MSGKFEVMNMDMKLGGTLKIKGKIAGDADGFVINLGQGSDKLNLHFNPRFHESVIVCNSRNWGQEQRDKHMCFSPGSEVKFTVTFENDGFKVKLPDGHQLTFPNRLGHSHLSYLGVQGGLKVSSFKIE	1.7

Kindly review the next binder as well.
Which glycan array binding signal (z-score) is reported for this binder? HPA (Helix pomatia), Q575S3 (protein) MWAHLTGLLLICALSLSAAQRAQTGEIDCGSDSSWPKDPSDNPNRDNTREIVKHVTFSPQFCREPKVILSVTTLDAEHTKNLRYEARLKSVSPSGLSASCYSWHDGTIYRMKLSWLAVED -0.267
